B1: Caulobacter ParB omega fusion; a variant is named by its letters at X, in order, B8GW30 (parent)
chain: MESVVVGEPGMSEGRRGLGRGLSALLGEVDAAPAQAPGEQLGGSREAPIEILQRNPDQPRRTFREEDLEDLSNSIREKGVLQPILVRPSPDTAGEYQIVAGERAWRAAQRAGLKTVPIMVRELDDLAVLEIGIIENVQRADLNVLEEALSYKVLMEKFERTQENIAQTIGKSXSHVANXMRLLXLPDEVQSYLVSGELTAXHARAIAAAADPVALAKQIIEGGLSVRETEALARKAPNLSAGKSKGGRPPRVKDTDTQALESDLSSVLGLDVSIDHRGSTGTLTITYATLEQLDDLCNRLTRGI

variants of: B1; assay: one-hybrid fitness for binding parS DNA (scaled: cognate 1, non-cognate 0); higher = stronger binding; conditions: with parS DNA site
Whole data set: some 81,000 sequences, median “one-hybrid fitness for binding parS DNA” near -0.17, cut for the highest 2% near 0.51. Only a selection was taken, and the highest values are over-represented in it overall.

- MUTANT LABEL: "NPHT"
  one-hybrid fitness for binding parS DNA: "≤ 0.2"
- MUTANT LABEL: "AKFS"
  one-hybrid fitness for binding parS DNA: "≤ 0.2"
- MUTANT LABEL: "RSKY"
  one-hybrid fitness for binding parS DNA: 0.609
- MUTANT LABEL: "GSHT"
  one-hybrid fitness for binding parS DNA: "≤ 0.2"
- MUTANT LABEL: "GTSE"
  one-hybrid fitness for binding parS DNA: "≤ 0.2"
- MUTANT LABEL: "WWRR"
  one-hybrid fitness for binding parS DNA: "≤ 0.2"
- MUTANT LABEL: "RWYH"
  one-hybrid fitness for binding parS DNA: "≤ 0.2"
- MUTANT LABEL: "RIQC"
  one-hybrid fitness for binding parS DNA: 1
- MUTANT LABEL: "RGKH"
  one-hybrid fitness for binding parS DNA: "≤ 0.2"
- MUTANT LABEL: "FTNL"
  one-hybrid fitness for binding parS DNA: "≤ 0.2"
- MUTANT LABEL: "WSCE"
  one-hybrid fitness for binding parS DNA: "≤ 0.2"
- MUTANT LABEL: "FHAL"
  one-hybrid fitness for binding parS DNA: "≤ 0.2"
- MUTANT LABEL: "RTMH"
  one-hybrid fitness for binding parS DNA: "≤ 0.2"
- MUTANT LABEL: "RGLM"
  one-hybrid fitness for binding parS DNA: "≤ 0.2"
- MUTANT LABEL: "RGCC"
  one-hybrid fitness for binding parS DNA: 0.534
- MUTANT LABEL: "EELW"
  one-hybrid fitness for binding parS DNA: "≤ 0.2"
- MUTANT LABEL: "PTAE"
  one-hybrid fitness for binding parS DNA: "≤ 0.2"
- MUTANT LABEL: "PGNR"
  one-hybrid fitness for binding parS DNA: "≤ 0.2"
- MUTANT LABEL: "RGLR"
  one-hybrid fitness for binding parS DNA: "≤ 0.2"
- MUTANT LABEL: "QFVS"
  one-hybrid fitness for binding parS DNA: "≤ 0.2"
- MUTANT LABEL: "LNCS"
  one-hybrid fitness for binding parS DNA: "≤ 0.2"
- MUTANT LABEL: "SLAM"
  one-hybrid fitness for binding parS DNA: "≤ 0.2"
- MUTANT LABEL: "RHQD"
  one-hybrid fitness for binding parS DNA: "≤ 0.2"
- MUTANT LABEL: "RFMP"
  one-hybrid fitness for binding parS DNA: "≤ 0.2"
- MUTANT LABEL: "RRKY"
  one-hybrid fitness for binding parS DNA: 0.856
- MUTANT LABEL: "VEKG"
  one-hybrid fitness for binding parS DNA: "≤ 0.2"
- MUTANT LABEL: "RTMD"
  one-hybrid fitness for binding parS DNA: "≤ 0.2"
- MUTANT LABEL: "RWYS"
  one-hybrid fitness for binding parS DNA: 0.803
- MUTANT LABEL: "NDPH"
  one-hybrid fitness for binding parS DNA: "≤ 0.2"
- MUTANT LABEL: "VSVG"
  one-hybrid fitness for binding parS DNA: "≤ 0.2"
- MUTANT LABEL: "REGT"
  one-hybrid fitness for binding parS DNA: 0.201
- MUTANT LABEL: "RKCA"
  one-hybrid fitness for binding parS DNA: 0.503
- MUTANT LABEL: "RWSS"
  one-hybrid fitness for binding parS DNA: 0.912
- MUTANT LABEL: "VETL"
  one-hybrid fitness for binding parS DNA: "≤ 0.2"
- MUTANT LABEL: "RHYY"
  one-hybrid fitness for binding parS DNA: 0.438
- MUTANT LABEL: "IRTA"
  one-hybrid fitness for binding parS DNA: "≤ 0.2"
- MUTANT LABEL: "RSVY"
  one-hybrid fitness for binding parS DNA: 0.37
- MUTANT LABEL: "RMCA"
  one-hybrid fitness for binding parS DNA: 0.633
- MUTANT LABEL: "AHLK"
  one-hybrid fitness for binding parS DNA: "≤ 0.2"
- MUTANT LABEL: "RGLC"
  one-hybrid fitness for binding parS DNA: 0.537
- MUTANT LABEL: "QYSS"
  one-hybrid fitness for binding parS DNA: "≤ 0.2"
- MUTANT LABEL: "TPTY"
  one-hybrid fitness for binding parS DNA: "≤ 0.2"
- MUTANT LABEL: "RWSH"
  one-hybrid fitness for binding parS DNA: "≤ 0.2"
- MUTANT LABEL: "RSQQ"
  one-hybrid fitness for binding parS DNA: "≤ 0.2"
- MUTANT LABEL: "RCCA"
  one-hybrid fitness for binding parS DNA: 0.677
- MUTANT LABEL: "DLRA"
  one-hybrid fitness for binding parS DNA: "≤ 0.2"
- MUTANT LABEL: "TTHM"
  one-hybrid fitness for binding parS DNA: "≤ 0.2"
- MUTANT LABEL: "CTRY"
  one-hybrid fitness for binding parS DNA: "≤ 0.2"
- MUTANT LABEL: "TIYS"
  one-hybrid fitness for binding parS DNA: "≤ 0.2"
- MUTANT LABEL: "TGGR"
  one-hybrid fitness for binding parS DNA: "≤ 0.2"
- MUTANT LABEL: "RGCK"
  one-hybrid fitness for binding parS DNA: "≤ 0.2"
- MUTANT LABEL: "RWWS"
  one-hybrid fitness for binding parS DNA: 0.644
- MUTANT LABEL: "RFMS"
  one-hybrid fitness for binding parS DNA: 0.983
- MUTANT LABEL: "GATL"
  one-hybrid fitness for binding parS DNA: "≤ 0.2"
- MUTANT LABEL: "RHKY"
  one-hybrid fitness for binding parS DNA: 0.518
- MUTANT LABEL: "NNTV"
  one-hybrid fitness for binding parS DNA: "≤ 0.2"
- MUTANT LABEL: "RCGT"
  one-hybrid fitness for binding parS DNA: 0.882
- MUTANT LABEL: "RWCA"
  one-hybrid fitness for binding parS DNA: 0.317
- MUTANT LABEL: "GTPA"
  one-hybrid fitness for binding parS DNA: "≤ 0.2"
- MUTANT LABEL: "RFVY"
  one-hybrid fitness for binding parS DNA: 0.301
- MUTANT LABEL: "NVKW"
  one-hybrid fitness for binding parS DNA: "≤ 0.2"
- MUTANT LABEL: "RKQY"
  one-hybrid fitness for binding parS DNA: 0.4
- MUTANT LABEL: "RWID"
  one-hybrid fitness for binding parS DNA: "≤ 0.2"
- MUTANT LABEL: "AIED"
  one-hybrid fitness for binding parS DNA: "≤ 0.2"
- MUTANT LABEL: "RPCA"
  one-hybrid fitness for binding parS DNA: "≤ 0.2"
- MUTANT LABEL: "EMYT"
  one-hybrid fitness for binding parS DNA: "≤ 0.2"
- MUTANT LABEL: "DKAR"
  one-hybrid fitness for binding parS DNA: "≤ 0.2"
- MUTANT LABEL: "FRQS"
  one-hybrid fitness for binding parS DNA: "≤ 0.2"
- MUTANT LABEL: "RWSP"
  one-hybrid fitness for binding parS DNA: "≤ 0.2"
- MUTANT LABEL: "RGVC"
  one-hybrid fitness for binding parS DNA: 0.445
- MUTANT LABEL: "RKQC"
  one-hybrid fitness for binding parS DNA: 0.825
- MUTANT LABEL: "VNNR"
  one-hybrid fitness for binding parS DNA: "≤ 0.2"
- MUTANT LABEL: "GPPY"
  one-hybrid fitness for binding parS DNA: "≤ 0.2"
- MUTANT LABEL: "FMKF"
  one-hybrid fitness for binding parS DNA: "≤ 0.2"
- MUTANT LABEL: "RWPS"
  one-hybrid fitness for binding parS DNA: 0.444
- MUTANT LABEL: "RWIS"
  one-hybrid fitness for binding parS DNA: 0.609
- MUTANT LABEL: "TKWY"
  one-hybrid fitness for binding parS DNA: "≤ 0.2"
- MUTANT LABEL: "REFP"
  one-hybrid fitness for binding parS DNA: "≤ 0.2"
- MUTANT LABEL: "PKPQ"
  one-hybrid fitness for binding parS DNA: "≤ 0.2"
- MUTANT LABEL: "RGIC"
  one-hybrid fitness for binding parS DNA: 0.422
- MUTANT LABEL: "RGCF"
  one-hybrid fitness for binding parS DNA: "≤ 0.2"
- MUTANT LABEL: "RGKC"
  one-hybrid fitness for binding parS DNA: 0.833
- MUTANT LABEL: "RFMH"
  one-hybrid fitness for binding parS DNA: "≤ 0.2"
- MUTANT LABEL: "RDGT"
  one-hybrid fitness for binding parS DNA: "≤ 0.2"
- MUTANT LABEL: "WWVS"
  one-hybrid fitness for binding parS DNA: "≤ 0.2"
- MUTANT LABEL: "RWWN"
  one-hybrid fitness for binding parS DNA: "≤ 0.2"
- MUTANT LABEL: "ADRH"
  one-hybrid fitness for binding parS DNA: "≤ 0.2"
- MUTANT LABEL: "RIQQ"
  one-hybrid fitness for binding parS DNA: "≤ 0.2"
- MUTANT LABEL: "DMEL"
  one-hybrid fitness for binding parS DNA: "≤ 0.2"
- MUTANT LABEL: "HLQT"
  one-hybrid fitness for binding parS DNA: "≤ 0.2"
- MUTANT LABEL: "AMIC"
  one-hybrid fitness for binding parS DNA: "≤ 0.2"
